tgt: glucosylceramide synthase (GCS) enzyme in Golgi preparations from human A375 malignant melanoma skin cells (Homo sapiens (Human))
Sequence (Q16739 whole entry): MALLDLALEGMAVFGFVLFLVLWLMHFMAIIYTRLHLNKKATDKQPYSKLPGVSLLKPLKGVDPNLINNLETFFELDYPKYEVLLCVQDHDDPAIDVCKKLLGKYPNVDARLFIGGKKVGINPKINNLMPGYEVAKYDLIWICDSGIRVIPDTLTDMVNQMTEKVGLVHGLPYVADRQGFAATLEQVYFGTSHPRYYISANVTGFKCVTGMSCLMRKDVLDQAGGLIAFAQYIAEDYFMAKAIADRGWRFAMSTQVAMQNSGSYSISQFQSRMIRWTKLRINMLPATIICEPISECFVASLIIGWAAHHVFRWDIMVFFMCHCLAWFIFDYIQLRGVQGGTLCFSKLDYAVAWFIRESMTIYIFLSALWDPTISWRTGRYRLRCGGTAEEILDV
assay-notes: UDP-Glo glucosylceramide synthase biochemical assay
conditions-used: 1.5 μg crude golgi preparation; C6 ceramide and UDP-glucose at 2×Km; 20 h incubation at room temperature; luminescence
# EC50 per entry
Reply with just the number (in nM).

Previously resolved entries follow.
Cn1ncc2ccc(-c3nn(C(=O)N4CCN5CCC4CC5)c4c3CCC4)cc21 [Compound 22]	6.3
O=C(N1CCN2CCC1CC2)n1nc(-n2cc(C(F)(F)F)cn2)c2c1CCC2 [Compound 54]	0.8
O=C(N1CCN2CCC1CC2)n1nc(-c2ccc(Cl)cn2)c2c1CCOC2 [Compound 48]	2

Next compound, EC50 to be filled in.
Query string: Requested field: EC50. Item: O=C(N1CCN2CCC1CC2)n1nc(-c2cc(F)c(F)cc2F)c2c1CCOC2 [Compound 45]
Result string: 2.3
